Below, each entry is listed with its recorded shrunken log2 fold change.
test system: Escherichia coli TOP10; experiment: shrunken log2 fold change of peptide-encoding DNA abundance (4.5 h post-induction vs induction); higher = less antimicrobial activity (less host growth inhibition); conditions: time post-induction: 4.5 h; library: site-saturation at positions 5, 18, 19, 20
Answer with a bare number; do not write a unit.

Solved cases below.
Ordered Residues	Observed Value
RRIRERPPRLPRPRPRPMSHPRP	-0.741
RRIRHRPPRLPRPRPRPLECPRP	-0.257
RRIRWRPPRLPRPRPRPFSDPRP	-0.0111

What the record says about `RRIRPRPPRLPRPRPRPVENPRP` : shrunken log2 fold change is 0.243

What the record says about `RRIRARPPRLPRPRPRPKHSPRP` : shrunken log2 fold change is 0.0875

What the record says about `RRIRDRPPRLPRPRPRPVTNPRP` : shrunken log2 fold change is 0.102

What the record says about `RRIRPRPPRLPRPRPRPWSKPRP` : shrunken log2 fold change is 0.00178

What the record says about `RRIRTRPPRLPRPRPRPVELPRP` : shrunken log2 fold change is -0.0533

What the record says about `RRIRLRPPRLPRPRPRPDCNPRP` : shrunken log2 fold change is 0.0608

What the record says about `RRIRIRPPRLPRPRPRPGLRPRP` : shrunken log2 fold change is -0.0223

What the record says about `RRIRQRPPRLPRPRPRPRCKPRP` : shrunken log2 fold change is 0.268

What the record says about `RRIRQRPPRLPRPRPRPLRYPRP` : shrunken log2 fold change is -0.0738

What the record says about `RRIRLRPPRLPRPRPRPNDQPRP` : shrunken log2 fold change is -0.19

What the record says about `RRIRFRPPRLPRPRPRPLQIPRP` : shrunken log2 fold change is -0.384

What the record says about `RRIRHRPPRLPRPRPRPRCWPRP` : shrunken log2 fold change is 0.145

---

tested on: Escherichia coli TOP10; assay: shrunken log2 fold change of peptide-encoding DNA abundance (4.5 h post-induction vs induction); higher = less antimicrobial activity (less host growth inhibition); conditions: time post-induction: 4.5 h; library: site-saturation at positions 5, 18, 19, 20;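 also: peptides expressed intracellularly from a pBAD plasmid library in pooled LB shake-flask culture, induced with 0.3% L-arabinose, DNA abundance read by NGS, three biological replicates, DESeq2 with apeglm shrinkage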
Classification field. Basis: shrunken log2 fold change. Definitions: 0 (below -0.1), 1 (-0.1 to below 0.01), 2 (0.01 or more)

Ordered Residues	Label Class
RRIRHRPPRLPRPRPRPRPEPRP	0
RRIRPRPPRLPRPRPRPKIQPRP	2
RRIRERPPRLPRPRPRPCAGPRP	1
RRIRKRPPRLPRPRPRPETEPRP	2
RRIRLRPPRLPRPRPRPQNMPRP	0
RRIRCRPPRLPRPRPRPYMKPRP	0
RRIRCRPPRLPRPRPRPIYMPRP	0
RRIRNRPPRLPRPRPRPYTPPRP	1
RRIRQRPPRLPRPRPRPVCKPRP	2
RRIRERPPRLPRPRPRPARWPRP	2

Where would `RRIRKRPPRLPRPRPRPSPVPRP` land among the classes by reported shrunken log2 fold change?
2

Where would `RRIRFRPPRLPRPRPRPMGKPRP` land among the classes by reported shrunken log2 fold change?
0

Where would `RRIRHRPPRLPRPRPRPGIKPRP` land among the classes by reported shrunken log2 fold change?
2

Where would `RRIRKRPPRLPRPRPRPAFWPRP` land among the classes by reported shrunken log2 fold change?
2

Where would `RRIRSRPPRLPRPRPRPASMPRP` land among the classes by reported shrunken log2 fold change?
2

Where would `RRIRCRPPRLPRPRPRPHDDPRP` land among the classes by reported shrunken log2 fold change?
0

Where would `RRIRWRPPRLPRPRPRPIDDPRP` land among the classes by reported shrunken log2 fold change?
0

Where would `RRIRQRPPRLPRPRPRPYGNPRP` land among the classes by reported shrunken log2 fold change?
1

Where would `RRIRGRPPRLPRPRPRPARDPRP` land among the classes by reported shrunken log2 fold change?
2

Where would `RRIRIRPPRLPRPRPRPLCNPRP` land among the classes by reported shrunken log2 fold change?
0
